- system tested: UniProt:P51531
- procedure text: HiBit assay in engineered HT1080 CRISPR knock-in cell, 6 hrs (B series), SMARCA2
- Type: cell-based
- condition parameters: HT-1080, HT1080 CRISPR knock-in cells, 6 hrs incubation; read-out: SMARC A2 HT1080 HiBit Dmax (%)
attribute measured: Dmax

Sample records with Dmax:
molecule: Cc1cc(C(C(=O)N2C[C@H](O)C[C@H]2C(=O)N[C@@H](CN2CCC(c3cccc4c3C(C)(C)c3nc(=O)c5c(Cl)cccc5n3-4)CC2)c2ccc(-c3scnc3C)cc2)C(C)C)on1 (stereo partly shown)
system tested: UniProt:P51531
Dmax: 70 to 90%
--
molecule: Cc1ncsc1-c1ccc([C@H](CCCCCN2CCC(c3ccc4c(c3)C(C)(C)c3nc(=O)c5c(Cl)cccc5n3-4)CC2)NC(=O)[C@@H]2C[C@@H](O)CN2C(=O)[C@@H](NC(=O)C2(F)CC2)C(C)(C)C)cc1
system tested: UniProt:P51531
Dmax: > 90%
--
molecule: Cc1ncsc1-c1ccc([C@H](CCCCCN2CCC(c3ccc4c(c3)-n3c(nc(=O)c5c(Cl)cccc53)C4(C)C)CC2)NC(=O)[C@@H]2C[C@@H](O)CN2C(=O)[C@@H](NC(=O)C2(F)CC2)C(C)(C)C)cc1
system tested: UniProt:P51531
Dmax: > 90%

Then there is this molecule:
IN: Value lookup for Dmax; key = Cc1ncsc1-c1ccc2c(c1)CC[C@H]2NC(=O)[C@@H]1C[C@@H](O)CN1C(=O)[C@@H](n1cc([C@H]2CC[C@H](CN3CCC(c4ccc5c(c4)-n4c(nc(=O)c6c(Cl)cccc64)C5(C)C)CC3)CC2)nn1)C(C)(C)C
OUT: 70 to 90%

* * *

- system tested: SMARCA4 (Homo sapiens)
- Sequence (P51532 whole entry): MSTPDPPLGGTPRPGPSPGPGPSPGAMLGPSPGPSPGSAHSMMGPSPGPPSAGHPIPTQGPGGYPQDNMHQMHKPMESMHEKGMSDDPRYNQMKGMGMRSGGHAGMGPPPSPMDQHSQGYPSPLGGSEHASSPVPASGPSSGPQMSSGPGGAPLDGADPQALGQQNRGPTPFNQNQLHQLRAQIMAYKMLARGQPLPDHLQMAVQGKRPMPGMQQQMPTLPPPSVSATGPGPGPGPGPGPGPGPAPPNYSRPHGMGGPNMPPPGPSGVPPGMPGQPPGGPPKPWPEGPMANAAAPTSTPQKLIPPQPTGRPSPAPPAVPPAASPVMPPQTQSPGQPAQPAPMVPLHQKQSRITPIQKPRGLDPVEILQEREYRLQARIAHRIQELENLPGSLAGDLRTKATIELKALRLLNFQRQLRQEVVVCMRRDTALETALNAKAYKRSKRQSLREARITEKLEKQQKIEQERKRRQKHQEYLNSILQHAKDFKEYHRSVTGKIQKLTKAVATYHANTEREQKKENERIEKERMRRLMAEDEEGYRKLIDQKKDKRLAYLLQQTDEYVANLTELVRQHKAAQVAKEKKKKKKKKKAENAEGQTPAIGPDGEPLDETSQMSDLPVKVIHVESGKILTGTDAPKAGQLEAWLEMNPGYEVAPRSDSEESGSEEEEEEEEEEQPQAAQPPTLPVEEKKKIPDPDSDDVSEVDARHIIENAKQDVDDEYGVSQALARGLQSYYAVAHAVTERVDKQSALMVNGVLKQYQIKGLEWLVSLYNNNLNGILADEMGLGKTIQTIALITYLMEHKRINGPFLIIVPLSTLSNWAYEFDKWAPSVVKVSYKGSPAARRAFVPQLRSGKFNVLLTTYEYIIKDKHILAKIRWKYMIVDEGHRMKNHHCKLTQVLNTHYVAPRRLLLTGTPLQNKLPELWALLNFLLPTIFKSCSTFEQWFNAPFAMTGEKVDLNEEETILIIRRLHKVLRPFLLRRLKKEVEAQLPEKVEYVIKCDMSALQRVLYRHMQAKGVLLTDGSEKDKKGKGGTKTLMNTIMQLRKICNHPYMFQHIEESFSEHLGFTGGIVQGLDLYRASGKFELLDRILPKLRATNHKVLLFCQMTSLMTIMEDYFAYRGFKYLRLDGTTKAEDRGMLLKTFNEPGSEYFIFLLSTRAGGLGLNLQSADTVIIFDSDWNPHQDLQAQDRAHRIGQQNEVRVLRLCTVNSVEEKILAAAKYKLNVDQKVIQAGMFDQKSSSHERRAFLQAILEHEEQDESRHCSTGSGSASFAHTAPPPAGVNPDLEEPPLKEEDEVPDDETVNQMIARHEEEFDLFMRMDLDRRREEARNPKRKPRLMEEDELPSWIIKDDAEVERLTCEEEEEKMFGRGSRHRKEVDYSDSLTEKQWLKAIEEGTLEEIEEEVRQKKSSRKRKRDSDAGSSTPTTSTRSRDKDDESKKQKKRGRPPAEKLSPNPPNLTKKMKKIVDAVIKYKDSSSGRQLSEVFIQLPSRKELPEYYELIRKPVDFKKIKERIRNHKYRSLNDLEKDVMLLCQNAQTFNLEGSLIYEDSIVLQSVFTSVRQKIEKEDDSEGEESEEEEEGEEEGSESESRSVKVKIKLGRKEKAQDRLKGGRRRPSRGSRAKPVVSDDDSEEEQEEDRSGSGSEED
- procedure text: HiBiT assay for protein degradation, Hela SMARCA4-HiBiT cells (A series)
- Type: cell-based
- Parameters: fuse HiBiT to the carboxy terminus of SMARCA2 (Promega CS302365) or SMARCA4 (Promega CS3023225); host or cells: HeLa (CRISPR/Cas9 HiBiT knock-in)
- condition parameters: Hela SMARCA4-HiBiT cells, 24 hours treatment; read-out: SMARC A4 Hela HiBit DC50
- Description: Hela cells were genetically modified via CRISPR/Cas9 to fuse HiBiT to the carboxy terminus of SMARCA2 (Promega CS302365) or SMARCA4 (Promega CS3023225). Cells were cultured in DMEM containing 10% FBS and 1% (Vol:Vol) penicillin-streptomycin. […] At the end of experiment, levels of SMARCA2 or SMARCA4 expression were assessed with Nano-Glo® HiBiT Lytic Detection Assay (Promega N3050). IC50 was obtained using the GraphPad Prism data analysis software.
attribute measured: DC50

Sample records with DC50:
structure: Cc1ncsc1-c1ccc([C@H](CN2CCOCC2)NC(=O)[C@@H]2C[C@@H](O)CN2C(=O)[C@H](C(C)C)n2cc([C@H]3CC[C@H](CN4CCC(c5ccc6c(c5)-n5c(nc(=O)c7c(Cl)cccc75)C65CCCCC5)CC4)CC3)nn2)cc1
DC50: < 10 nM
--
structure: Cc1ncsc1-c1ccc([C@H](C)NC(=O)[C@@H]2C[C@@H](O)CN2C(=O)[C@@H](n2cc(CCCCCN3CCC(c4ccc5c(c4)C4(CCCCC4)c4nc(=O)c6c(Br)cccc6n4-5)CC3)nn2)C(C)(C)C)cc1
DC50: < 100 nM
--
structure: Cc1ncsc1-c1ccc([C@H](C)NC(=O)[C@@H]2C[C@@H](O)CN2C(=O)[C@@H](n2cc(CCCN3CCC(c4ccc5c(c4)C4(CCCCC4)c4nc(=O)c6c(Br)cccc6n4-5)CC3)nn2)C(C)(C)C)cc1
DC50: < 100 nM
--
structure: Cc1ncsc1-c1ccc([C@H](CC(=O)N2CCC3(CCC(N4CCC(c5ccc6c(c5)-n5c(nc(=O)c7c(Br)cccc75)C65CCCCC5)CC4)CC3)CC2)NC(=O)[C@@H]2C[C@@H](O)CN2C(=O)[C@@H](n2cc(C3CC3)nn2)C(C)(C)C)cc1
DC50: 10 to 100 nM
--
structure: Cc1ncsc1-c1ccc([C@H](Cn2cc([C@H]3CC[C@H](CN4CCC(c5ccc6c(c5)C5(CCCCC5)c5nc(=O)c7c(Br)cccc7n5-6)CC4)CC3)nn2)NC(=O)[C@@H]2C[C@@H](O)CN2C(=O)[C@@H](NC(=O)C2(F)CC2)C(C)(C)C)cc1
DC50: 100 to 500 nM
--
structure: Cc1ncsc1-c1ccc([C@H](Cn2cc([C@H]3CC[C@H](CN4CCC(c5ccc6c(n5)-n5c(nc(=O)c7c(Br)cccc75)C65CCCCC5)CC4)CC3)nn2)NC(=O)[C@@H]2C[C@@H](O)CN2C(=O)[C@@H](NC(=O)C2(F)CC2)C(C)(C)C)cc1
DC50: > 1000 nM
--
structure: CC1(C)c2ccc(C3CCN(C[C@H]4CC[C@H](c5cn([C@H](C(=O)N6C[C@H](O)C[C@H]6C(=O)N[C@@H](CN6CCOCC6)c6ccc(-c7scnc7C(=O)O)cc6)C6CCOCC6)nn5)CC4)CC3)cc2-n2c1nc(=O)c1c(Cl)cccc12
DC50: > 1000 nM
--
structure: Cc1ncsc1-c1ccc([C@H](CN2CCOCC2)NC(=O)[C@@H]2C[C@@H](O)CN2C(=O)[C@H](C2CCCCC2)n2cc(-c3ccc(CN4CCC(c5ccc6c(c5)-n5c(nc(=O)c7c(Br)cccc75)C65CCCCC5)CC4)cc3)nn2)cc1
DC50: > 1000 nM

Then there is this molecule:
IN: Value lookup for DC50; key = C[C@H](NC(=O)[C@@H]1C[C@@H](O)CN1C(=O)[C@@H](n1cc([C@H]2CC[C@H](CN3CCC(c4ccc5c(c4)-n4c(nc(=O)c6c(Br)cccc64)C54CCCCC4)CC3)CC2)nn1)C(C)(C)C)c1ccc(Cl)cc1
OUT: > 1000 nM

* * *

Catalogue of compounds with associated Dmax
- system tested: SMARCA2 (Homo sapiens, UniProt P51531)
- Sequence (P51531 whole entry): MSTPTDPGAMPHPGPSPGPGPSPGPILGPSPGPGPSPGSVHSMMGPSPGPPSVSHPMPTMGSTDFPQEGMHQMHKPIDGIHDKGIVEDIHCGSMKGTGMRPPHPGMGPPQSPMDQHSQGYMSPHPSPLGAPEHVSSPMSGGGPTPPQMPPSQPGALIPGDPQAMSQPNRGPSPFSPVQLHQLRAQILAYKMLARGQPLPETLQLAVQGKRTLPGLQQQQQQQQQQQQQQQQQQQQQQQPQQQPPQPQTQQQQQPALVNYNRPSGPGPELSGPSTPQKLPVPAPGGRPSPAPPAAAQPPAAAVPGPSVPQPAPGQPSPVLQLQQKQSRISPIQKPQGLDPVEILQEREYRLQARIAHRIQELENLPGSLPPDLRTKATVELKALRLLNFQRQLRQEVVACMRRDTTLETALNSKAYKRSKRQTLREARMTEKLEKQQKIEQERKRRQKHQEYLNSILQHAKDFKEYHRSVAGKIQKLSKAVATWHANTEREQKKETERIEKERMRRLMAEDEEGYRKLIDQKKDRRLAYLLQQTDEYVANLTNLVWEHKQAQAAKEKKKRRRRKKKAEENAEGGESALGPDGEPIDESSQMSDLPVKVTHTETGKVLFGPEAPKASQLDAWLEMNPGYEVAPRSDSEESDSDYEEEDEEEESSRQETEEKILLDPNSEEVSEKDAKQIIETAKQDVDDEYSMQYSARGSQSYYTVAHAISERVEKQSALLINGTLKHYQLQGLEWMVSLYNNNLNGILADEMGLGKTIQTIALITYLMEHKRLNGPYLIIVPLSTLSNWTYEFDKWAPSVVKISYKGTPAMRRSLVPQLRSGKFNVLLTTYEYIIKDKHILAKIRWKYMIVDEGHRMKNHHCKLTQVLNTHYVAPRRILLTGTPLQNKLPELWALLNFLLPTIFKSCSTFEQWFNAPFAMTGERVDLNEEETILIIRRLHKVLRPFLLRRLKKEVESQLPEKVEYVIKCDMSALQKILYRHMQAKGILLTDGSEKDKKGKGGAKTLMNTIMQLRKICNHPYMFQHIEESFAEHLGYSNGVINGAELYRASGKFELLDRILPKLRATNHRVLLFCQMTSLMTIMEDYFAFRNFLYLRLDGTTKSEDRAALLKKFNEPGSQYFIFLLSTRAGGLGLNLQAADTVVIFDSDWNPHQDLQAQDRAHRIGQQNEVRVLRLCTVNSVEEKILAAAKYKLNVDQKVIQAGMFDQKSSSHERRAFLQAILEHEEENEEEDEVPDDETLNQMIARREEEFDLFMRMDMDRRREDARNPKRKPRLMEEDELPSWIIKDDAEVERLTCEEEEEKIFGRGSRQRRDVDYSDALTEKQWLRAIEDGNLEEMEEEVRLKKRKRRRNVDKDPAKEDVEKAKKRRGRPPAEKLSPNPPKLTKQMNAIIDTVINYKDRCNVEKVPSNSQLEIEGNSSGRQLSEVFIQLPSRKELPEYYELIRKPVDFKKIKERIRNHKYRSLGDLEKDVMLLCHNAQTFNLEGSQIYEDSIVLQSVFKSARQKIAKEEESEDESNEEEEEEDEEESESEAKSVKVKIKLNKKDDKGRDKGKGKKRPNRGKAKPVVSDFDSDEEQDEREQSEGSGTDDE
- procedure text: HiBit assay in engineered HT1080 CRISPR knock-in cell, 6 hrs (B series), SMARCA2
- Assay type: cell-based
- condition parameters: HT-1080, HT1080 CRISPR knock-in cells, 6 hrs incubation; read-out: SMARC A2 HT1080 HiBit Dmax (%)

compound: Cc1ncsc1-c1ccc([C@H](C)NC(=O)[C@@H]2C[C@@H](O)CN2C(=O)[C@H](C(C)C)n2cc(CCCN3CCC(c4ccc5c(c4)-n4c(nc(=O)c6c(Cl)cccc64)C5(C)C)CC3)nn2)cc1 [Compound B58]
system tested: SMARCA2 (Homo sapiens, UniProt P51531)
attribute measured: Dmax
result value: > 90%

IN: Value lookup for Dmax; key = Cc1ncsc1-c1ccc([C@H](CN2CCOCC2)NC(=O)[C@@H]2C[C@@H](O)CN2C(=O)[C@@H](c2cc(N3CCC(c4ccc5c(c4)C(C)(C)c4nc(=O)c6c(Cl)cccc6n4-5)CC3)no2)C(C)C)cc1 [Compound B110]
OUT: > 90%

IN: Continue with Cc1ncsc1-c1ccc([C@H](C)NC(=O)[C@@H]2C[C@@H](O)CN2C(=O)[C@@H](NC(=O)[C@H]2CC[C@H](Cn3cc(-c4ccc5c(c4)C(C)(C)c4nc(=O)c6c(Cl)cccc6n4-5)cn3)CC2)C(C)(C)C)cc1 [Compound B48]
OUT: 70 to 90%

IN: Continue with CC#Cc1ccc([C@H](C)NC(=O)[C@@H]2C[C@@H](O)CN2C(=O)[C@H](C(C)C)n2cc([C@H]3CC[C@H](CN4CCC(c5ccc6c(c5)-n5c(nc(=O)c7c(Cl)cccc75)C6(C)C)CC4)CC3)nn2)cc1 [Compound B131]
OUT: > 90%

IN: Continue with Cc1ncsc1-c1ccc([C@H](C)NC(=O)[C@@H]2C[C@@H](O)CN2C(=O)[C@@H](NC(=O)CCn2cc(-c3ccc4c(c3)C(C)(C)c3nc(=O)c5c(Cl)cccc5n3-4)cn2)C(C)(C)C)cc1 [Compound B101]
OUT: < 50%

IN: Continue with Cc1ncsc1-c1ccc([C@H](C)NC(=O)[C@@H]2C[C@@H](O)CN2C(=O)[C@H](C(C)C)n2cc(CN3CCC(c4ccc5c(c4)C(C)(C)c4nc(=O)c6c(Cl)cccc6n4-5)CC3)nn2)cc1 [Compound B29]
OUT: > 90%

IN: Continue with Cc1ncsc1-c1ccc([C@H](C)NC(=O)[C@@H]2C[C@@H](O)CN2C(=O)[C@@H](NC(=O)CCCN2CCC(c3ccc4c(c3)-n3c(nc(=O)c5c(Cl)cccc53)C4(C)C)CC2)C(C)(C)C)cc1 [Compound B45]
OUT: 70 to 90%

IN: Continue with Cc1cc([C@H](C(=O)N2C[C@H](O)C[C@H]2C(=O)N[C@@H](C)c2ccc(-c3scnc3C(=O)NCCCCOCCN3CCC(c4ccc5c(c4)-n4c(nc(=O)c6c(Cl)cccc64)C5(C)C)CC3)cc2)C(C)C)on1 [Compound B147]
OUT: 50 to 69%

IN: Continue with Cc1ncsc1-c1ccc([C@H](CCCCCN2CCC(c3ccc4c(c3)C(C)(C)c3nc(=O)c5c(Br)cccc5n3-4)CC2)NC(=O)[C@@H]2C[C@@H](O)CN2C(=O)[C@@H](NC(=O)C2(C#N)CC2)C(C)(C)C)cc1 [Compound B3]
OUT: > 90%

IN: Continue with Cc1cc(C(C(=O)N2C[C@H](O)C[C@H]2C(=O)N[C@@H](C)c2ccc(-c3scnc3C#CCN3CCC(c4ccc5c(c4)C(C)(C)c4nc(=O)c6c(Cl)cccc6n4-5)CC3)cc2)C(C)C)on1 (stereo partly shown) [Compound B144]
OUT: 50 to 69%
